The measurements presented in this section are drawn from ChEMBL document CHEMBL3885861.

K values for the compounds below.
# Species: Rattus norvegicus
# ASSAY: Open TG-GATES - Regimen: Single
# Format: toxicity, organism-based, Sprague-Dawley
# Parameters: regimen Single, gender Male, age 6 weeks
# CONDITION_NOTES: in vivo, po, 300 mg/kg, 3 h, tissue Plasma, route gavage, dose level Middle
// note: answer is a bare numeric in meq/L

Worked cases, answers included:
COMPOUND	READOUT	REPORTED
CN/C(=N/CCSCc1nc[nH]c1C)NC#N [CIMETIDINE]	K	4.1
O=C(OC[C@H]1O[C@@H](OC(=O)c2cc(O)c(O)c(OC(=O)c3cc(O)c(O)c(O)c3)c2)[C@H](OC(=O)c2cc(O)c(O)c(OC(=O)c3cc(O)c(O)c(O)c3)c2)[C@@H](OC(=O)c2cc(O)c(O)c(OC(=O)c3cc(O)c(O)c(O)c3)c2)[C@@H]1OC(=O)c1cc(O)c(O)c(OC(=O)c2cc(O)c(O)c(O)c2)c1)c1cc(O)c(O)c(OC(=O)c2cc(O)c(O)c(O)c2)c1 [TANNIC ACID]	K	4.7
COC(=O)C1=C(C)NC(C)=C(C(=O)OC)C1c1ccccc1[N+](=O)[O-] [NIFEDIPINE]	K	4.7
CNC(=C[N+](=O)[O-])NCCSCc1ccc(CN(C)C)o1 [RANITIDINE]	K	3.8

We next turn to a different compound, shown below.
Input line: Given Cc1nnc2n1-c1ccc(Cl)cc1C(c1ccccc1Cl)=NC2 [TRIAZOLAM] , state its recorded K.
Output line: 4.2

###

# Species: Rattus norvegicus
# ASSAY: Open TG-GATES - Regimen: Daily Repeat
# Type: toxicity, organism-based, Sprague-Dawley
# Set-up: regimen Daily Repeat, gender Male, age 6 weeks
# CONDITION_NOTES: in vivo, po, 100 mg/kg, […], tissue Blood, route gavage, dose level Low, time 28 day
Bas values for the compounds below.
State the result as a value with its unit after it.

COMPOUND	Bas
CCOc1ccc(NC(C)=O)cc1 [PHENACETIN]	0%

Input line: Given O=C(OC[C@H]1O[C@@H](OC(=O)c2cc(O)c(O)c(OC(=O)c3cc(O)c(O)c(O)c3)c2)[C@H](OC(=O)c2cc(O)c(O)c(OC(=O)c3cc(O)c(O)c(O)c3)c2)[C@@H](OC(=O)c2cc(O)c(O)c(OC(=O)c3cc(O)c(O)c(O)c3)c2)[C@@H]1OC(=O)c1cc(O)c(O)c(OC(=O)c2cc(O)c(O)c(O)c2)c1)c1cc(O)c(O)c(OC(=O)c2cc(O)c(O)c(O)c2)c1 [TANNIC ACID] , state its recorded Bas.
Output line: 0%

###

# Species: Rattus norvegicus
# ASSAY: Open TG-GATES - Regimen: Single
# Format: toxicity, organism-based, Sprague-Dawley
# Set-up: regimen Single, gender Male, age 6 weeks
# CONDITION_NOTES: in vivo, po, 0 mg/kg, 24 h, tissue Plasma, route gavage, dose level Control
READOUT: AST

Worked cases, answers included:
COMPOUND	READOUT	REPORTED
CS(=O)(=O)O.Cc1ccc(NC(=O)c2ccc(CN3CCN(C)CC3)cc2)cc1Nc1nccc(-c2cccnc2)n1 [IMATINIB MESYLATE]	AST	68.2 IU/L
COC(=O)C1=C(C)NC(C)=C(C(=O)OC)C1c1ccccc1[N+](=O)[O-]	AST	75 IU/L
O=C(OC[C@H]1O[C@@H](OC(=O)c2cc(O)c(O)c(OC(=O)c3cc(O)c(O)c(O)c3)c2)[C@H](OC(=O)c2cc(O)c(O)c(OC(=O)c3cc(O)c(O)c(O)c3)c2)[C@@H](OC(=O)c2cc(O)c(O)c(OC(=O)c3cc(O)c(O)c(O)c3)c2)[C@@H]1OC(=O)c1cc(O)c(O)c(OC(=O)c2cc(O)c(O)c(O)c2)c1)c1cc(O)c(O)c(OC(=O)c2cc(O)c(O)c(O)c2)c1	AST	66.6 IU/L
Nc1c2c(nc3ccccc13)CCCC2	AST	74.4 IU/L
CCOc1ccc(NC(C)=O)cc1	AST	66.2 IU/L

Input line: Given CN1C(=O)CCS(=O)(=O)C1c1ccc(Cl)cc1 (centres undefined) , state its recorded AST.
Output line: 87 IU/L

###

# Species on record: Rattus norvegicus
# ASSAY: Open TG-GATES - Regimen: Daily Repeat
# Type: toxicity, organism-based, Sprague-Dawley
# Set-up: regimen Daily Repeat, gender Male, age 6 weeks
# CONDITION_NOTES: in vivo, po, 0 mg/kg, 72 h, tissue Blood, route gavage, dose level Control, time 3 day
Ht values for the compounds below.
// note: answer is a bare numeric in %

COMPOUND	UNIT_ABBREVIATION	REPORTED
COC(=O)C1=C(C)NC(C)=C(C(=O)OC)C1c1ccccc1[N+](=O)[O-] [NIFEDIPINE]	%	41.3
CC(C)NNC(=O)c1ccncc1 [IPRONIAZID]	%	38.2
Nc1c2c(nc3ccccc13)CCCC2 [TACRINE]	%	38.7
O=C(OC[C@H]1O[C@@H](OC(=O)c2cc(O)c(O)c(OC(=O)c3cc(O)c(O)c(O)c3)c2)[C@H](OC(=O)c2cc(O)c(O)c(OC(=O)c3cc(O)c(O)c(O)c3)c2)[C@@H](OC(=O)c2cc(O)c(O)c(OC(=O)c3cc(O)c(O)c(O)c3)c2)[C@@H]1OC(=O)c1cc(O)c(O)c(OC(=O)c2cc(O)c(O)c(O)c2)c1)c1cc(O)c(O)c(OC(=O)c2cc(O)c(O)c(O)c2)c1 [TANNIC ACID]	%	39.3

Input line: Given Cc1nnc2n1-c1ccc(Cl)cc1C(c1ccccc1Cl)=NC2 [TRIAZOLAM] , state its recorded Ht.
Output line: 40.9

Input line: For CN1C(=O)CCS(=O)(=O)C1c1ccc(Cl)cc1 (configuration not stated) [CHLORMEZANONE] then?
Output line: 39.1

Input line: For NC1=NC(=O)C(c2ccccc2)O1 (configuration not stated) [PEMOLINE] then?
Output line: 39.7

###

TC values for the compounds below.
# Organism: Rattus norvegicus
# ASSAY: Open TG-GATES - Regimen: Daily Repeat
# Format: toxicity, organism-based, Sprague-Dawley
# Design: regimen Daily Repeat, gender Male, age 6 weeks
# CONDITION_NOTES: in vivo, po, 1000 mg/kg, […], tissue Plasma, route gavage, dose level High, time 28 day

Worked cases, answers included:
SMILES_INPUT	TC
CCOc1ccc(NC(C)=O)cc1	81.2 mg/dL
Cc1nnc2n1-c1ccc(Cl)cc1C(c1ccccc1Cl)=NC2	79.8 mg/dL
CNC(=C[N+](=O)[O-])NCCSCc1ccc(CN(C)C)o1	70.4 mg/dL

We next turn to a different compound, shown below.
Input line: Given CN/C(=N/CCSCc1nc[nH]c1C)NC#N , state its recorded TC.
Output line: 77.8 mg/dL

###

# Organism: Rattus norvegicus
# ASSAY: Open TG-GATES - Regimen: Daily Repeat
# Assay type: toxicity, organism-based, Sprague-Dawley
# Design: regimen Daily Repeat, gender Male, age 6 weeks
# CONDITION_NOTES: in vivo, po, 0 mg/kg, […], tissue Blood, route gavage, dose level Control, time 14 day
READOUT: Bas (%)
// note: answer is a bare numeric in %

Worked cases, answers included:
MOLECULE	UNIT_ABBREVIATION	Bas
Brc1ccccc1 [BROMOBENZENE]	%	0
COC(=O)C1=C(C)NC(C)=C(C(=O)OC)C1c1ccccc1[N+](=O)[O-] [NIFEDIPINE]	%	0
NC1=NC(=O)C(c2ccccc2)O1 (stereo not drawn) [PEMOLINE]	%	0
CCCc1cc(=O)[nH]c(=S)[nH]1 [PROPYLTHIOURACIL]	%	0
CNC(=C[N+](=O)[O-])NCCSCc1ccc(CN(C)C)o1 [RANITIDINE]	%	0

Input line: Given CN/C(=N/CCSCc1nc[nH]c1C)NC#N [CIMETIDINE] , state its recorded Bas.
Output line: 0

Input line: For Nc1c2c(nc3ccccc13)CCCC2 [TACRINE] then?
Output line: 0

Input line: For CN1C(=O)CCS(=O)(=O)C1c1ccc(Cl)cc1 (stereo not drawn) [CHLORMEZANONE] then?
Output line: 0

###

# Organism: Rattus norvegicus
# ASSAY: Open TG-GATES - Regimen: Daily Repeat
# Type: toxicity, organism-based, Sprague-Dawley
# Parameters: regimen Daily Repeat, gender Male, age 6 weeks
# CONDITION_NOTES: in vivo, po, 1000 mg/kg, […], tissue Blood, route gavage, dose level High, time 14 day
Hb values for the compounds below.
// note: answer is a bare numeric in g/dL

COMPOUND	REPORTED
Cc1nnc2n1-c1ccc(Cl)cc1C(c1ccccc1Cl)=NC2 [TRIAZOLAM]	14.2

Input line: Given COC(=O)C1=C(C)NC(C)=C(C(=O)OC)C1c1ccccc1[N+](=O)[O-] [NIFEDIPINE] , state its recorded Hb.
Output line: 14.3

Input line: For CN/C(=N/CCSCc1nc[nH]c1C)NC#N [CIMETIDINE] then?
Output line: 14.2
